Data provenance is patent US20260308145A1.

System under test: CDK4/cyclinD3 (Homo sapiens, UniProt P11802)
Sequence (P11802 whole entry): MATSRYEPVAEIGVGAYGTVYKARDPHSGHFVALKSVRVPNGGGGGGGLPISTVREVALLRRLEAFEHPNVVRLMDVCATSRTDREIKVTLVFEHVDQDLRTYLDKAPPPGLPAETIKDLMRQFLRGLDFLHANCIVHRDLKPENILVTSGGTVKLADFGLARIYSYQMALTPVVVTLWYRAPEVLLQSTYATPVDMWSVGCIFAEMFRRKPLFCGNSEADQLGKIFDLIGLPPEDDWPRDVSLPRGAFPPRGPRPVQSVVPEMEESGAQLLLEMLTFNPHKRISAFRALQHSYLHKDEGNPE
Sequence (P30281 whole entry partner): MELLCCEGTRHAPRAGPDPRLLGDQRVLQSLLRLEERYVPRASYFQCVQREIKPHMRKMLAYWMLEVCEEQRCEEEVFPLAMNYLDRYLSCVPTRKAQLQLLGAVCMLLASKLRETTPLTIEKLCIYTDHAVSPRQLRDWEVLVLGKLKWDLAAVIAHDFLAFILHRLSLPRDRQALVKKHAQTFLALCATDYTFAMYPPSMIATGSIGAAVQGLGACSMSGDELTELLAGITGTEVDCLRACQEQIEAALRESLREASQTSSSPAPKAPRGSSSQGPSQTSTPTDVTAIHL
Assay remarks: Cyclin-dependent kinase activity assay (continuous ATP coupling assay), CDK4/cyclinD3
Experimental parameters: CDK4/cyclinD3 60 nM, ATP 500 μM, Rb copeptide 500 μM, 15 min preincubation, pH 7.5, 1% DMSO
Outcome measure: IC50

What value of IC50 has been recorded for this entry: Cc1cc(Nc2ncc(C(F)(F)F)c(-n3cccn3)n2)ccc1S(=O)(=O)NCCO [Example 125]
≥ 100 nM

What value of IC50 has been recorded for this entry: CNS(=O)(=O)c1ccc(Nc2nccc(-n3cc(CC(C)(C)O)cn3)n2)cc1 [Example 67]
≥ 100 nM

What value of IC50 has been recorded for this entry: CNS(=O)(=O)c1ccc(Nc2ncc(C(F)(F)F)c(-n3cc(C4CCC4)cn3)n2)cc1 [Example 101]
≥ 100 nM

What value of IC50 has been recorded for this entry: CNS(=O)(=O)c1ccc(Nc2ncc(C(F)(F)F)c(-n3cc(C4CNC4)cn3)n2)cc1 [Example 15]
10 to 100 nM

What value of IC50 has been recorded for this entry: O=S(=O)(c1ccc(Nc2ncc(C(F)(F)F)c(-n3cccn3)n2)cc1)N1CCNCC1 [Example 37]
10 to 100 nM

What value of IC50 has been recorded for this entry: CNS(=O)(=O)c1ccc(Nc2ncc(C(F)(F)F)c(-n3cc(C)cn3)n2)cc1 [Example 46]
10 to 100 nM

What value of IC50 has been recorded for this entry: O=S(=O)(NC1COC1)c1ccc(Nc2ncc(C(F)(F)F)c(-n3cccn3)n2)cc1 [Example 40]
≥ 100 nM

What value of IC50 has been recorded for this entry: CNS(=O)(=O)c1ccc(Nc2ncc(C(F)(F)F)c(-n3cc(N4CCCC4)cn3)n2)cc1 [Example 87]
≥ 100 nM

What value of IC50 has been recorded for this entry: CNS(=O)(=O)c1ccc(Nc2ncc(C(F)(F)F)c(-n3cc([C@H]4C[C@H](O)C4)cn3)n2)cc1 [Example 106]
≥ 100 nM

What value of IC50 has been recorded for this entry: CNS(=O)(=O)c1ccc(Nc2ncc(C(F)(F)F)c(-n3cc([C@H]4C[C@](C)(O)C4)cn3)n2)cc1 (single isomer, unassigned) [Example 104]
10 to 100 nM

What value of IC50 has been recorded for this entry: CNS(=O)(=O)c1ccc(Nc2ncc(C(F)(F)F)c(-n3cc(C4CCN(C)CC4)cn3)n2)cc1 [Example 80]
10 to 100 nM

What value of IC50 has been recorded for this entry: CNS(=O)(=O)c1ccc(Nc2ncc(C(F)(F)F)c(-n3cc(C4CCN(C(C)=O)CC4)cn3)n2)cc1 [Example 14]
10 to 100 nM

What value of IC50 has been recorded for this entry: N#Cc1cnc(Nc2ccc(S(=O)(=O)NCCO)cc2)nc1-n1cccn1 [Example 119]
≥ 100 nM

What value of IC50 has been recorded for this entry: CN1CCN(S(=O)(=O)c2ccc(Nc3ncc(C(F)(F)F)c(-n4cccn4)n3)cc2)CC1 [Example 38]
≥ 100 nM

What value of IC50 has been recorded for this entry: NS(=O)(=O)c1ccc(Nc2ncc(C(F)(F)F)c(-n3cccn3)n2)c(F)c1 [Example 28]
≥ 100 nM

What value of IC50 has been recorded for this entry: CNS(=O)(=O)c1ccc(Nc2ncc(C(F)(F)F)c(-n3cc(CN4CCNCC4)cn3)n2)cc1 [Example 84]
≥ 100 nM

What value of IC50 has been recorded for this entry: CS(=O)(=O)N1CCC(Nc2ncc(C(F)(F)F)c(-n3cccn3)n2)CC1 [Example 19]
10 to 100 nM

What value of IC50 has been recorded for this entry: O=S(=O)(NCCO)c1ccc(Nc2ncc(Cl)c(-n3cccn3)n2)cc1 [Example 117]
≥ 100 nM

What value of IC50 has been recorded for this entry: CNS(=O)(=O)c1ccc(Nc2ncc(Br)c(-n3cccn3)n2)cc1 [Example 25]
≥ 100 nM

What value of IC50 has been recorded for this entry: CNS(=O)(=O)c1ccc(Nc2ncc(C)c(-n3cc(CC(C)(C)O)cn3)n2)cc1 [Example 63]
10 to 100 nM

What value of IC50 has been recorded for this entry: CNS(=O)(=O)c1ccc(Nc2ncc(C(F)(F)F)c(-n3cc(C4CN(S(C)(=O)=O)C4)cn3)n2)cc1 [Example 98]
≥ 100 nM

What value of IC50 has been recorded for this entry: CCS(=O)(=O)N1CC2(CC(Nc3ncc(C(F)(F)F)c(-n4cccn4)n3)C2)C1 [Example 32]
≥ 100 nM

What value of IC50 has been recorded for this entry: CC(C)(O)c1cnn(-c2nc(NC3CCN(S(C)(=O)=O)CC3)ncc2F)c1 [Example 1]
10 to 100 nM

What value of IC50 has been recorded for this entry: O=S(=O)(NCCO)c1ccc(Nc2ncc(C(F)(F)F)c(-n3cccn3)n2)cn1 [Example 136]
≥ 100 nM

What value of IC50 has been recorded for this entry: [2H]C([2H])([2H])NS(=O)(=O)c1ccc(Nc2ncc(C(F)(F)F)c(-n3cccn3)n2)cc1 [Example 17]
≥ 100 nM

What value of IC50 has been recorded for this entry: CNS(=O)(=O)c1ccc(Nc2ncc(C(F)(F)F)c(-n3cc(C(C)(C)CO)cn3)n2)cc1 [Example 59]
10 to 100 nM

What value of IC50 has been recorded for this entry: CC(CO)NS(=O)(=O)c1ccc(Nc2ncc(C(F)(F)F)c(-n3cccn3)n2)cc1 (centres unmarked) [Example 133]
≥ 100 nM

What value of IC50 has been recorded for this entry: CNS(=O)(=O)c1cccc(Nc2ncc(C(F)(F)F)c(-n3cccn3)n2)c1 [Example 122]
≥ 100 nM

What value of IC50 has been recorded for this entry: CNS(=O)(=O)c1ccc(Nc2ncc(C(F)(F)F)c(-n3cc([C@@H]4CCNC4)cn3)n2)cc1 [Example 94]
10 to 100 nM

What value of IC50 has been recorded for this entry: CC(C)(O)Cc1cnn(-c2nc(NC3CCN(S(C)(=O)=O)CC3)ncc2C(F)(F)F)c1 [Example 7]
10 to 100 nM

What value of IC50 has been recorded for this entry: CN(C)CCNS(=O)(=O)c1ccc(Nc2ncc(C(F)(F)F)c(-n3cccn3)n2)cc1 [Example 43]
10 to 100 nM

What value of IC50 has been recorded for this entry: [2H]C([2H])([2H])NS(=O)(=O)c1ccc(Nc2ncc(C(F)(F)F)c(-n3cc(CC(C)(C)O)cn3)n2)cc1 [Example 58]
10 to 100 nM

---

Assign pIC50 to each entry below.
System under test: CDK2/cyclinE1 (Homo sapiens, UniProt P24941)
Assay remarks: Cyclin-dependent kinase activity assay (continuous ATP coupling assay), CDK2/cyclinE1
Experimental parameters: CDK2/cyclinE1 5 nM, ATP 300 μM, Rb copeptide 100 μM, 15 min preincubation, pH 7.5, 1% DMSO
pIC50: −log10 of the molar value.

What value of pIC50 has been recorded for this entry: CC(C)(O)Cc1cnn(-c2nc(Nc3ccc(S(N)(=O)=O)cc3)ncc2C(F)(F)F)c1 [Example 71]
≥ 8.00

What value of pIC50 has been recorded for this entry: O=S(=O)(NCCO)c1ccc(Nc2ncc(C(F)(F)F)c(-n3cccn3)n2)cc1 [Example 36]
≥ 8.00

What value of pIC50 has been recorded for this entry: CNS(=O)(=O)c1ccc(Nc2ncc(F)c(-n3cc(CC(C)(C)O)cn3)n2)cc1 [Example 62]
7.00 to 8.00

What value of pIC50 has been recorded for this entry: CNS(=O)(=O)c1ccc(Nc2ncc(C)c(-n3cccn3)n2)cc1 [Example 22]
7.00 to 8.00

What value of pIC50 has been recorded for this entry: [2H]C([2H])([2H])NS(=O)(=O)c1ccc(Nc2ncc(C(F)(F)F)c(-n3ccc(C(F)(F)F)n3)n2)cc1 [Example 54]
7.00 to 8.00

What value of pIC50 has been recorded for this entry: CC(O)Cc1cnn(-c2nc(NC3CCN(S(C)(=O)=O)CC3)ncc2C(F)(F)F)c1 (single isomer, unassigned) [Example 107]
≥ 8.00

What value of pIC50 has been recorded for this entry: CC(CO)NS(=O)(=O)c1ccc(Nc2ncc(C(F)(F)F)c(-n3cccn3)n2)cc1 (centres unmarked) [Example 133]
≥ 8.00

What value of pIC50 has been recorded for this entry: CNS(=O)(=O)c1ccc(Nc2ncc(Cl)c(-n3cccn3)n2)cc1 [Example 24]
7.00 to 8.00

---

System under test: CDK2/cyclinE1 (Homo sapiens)
Assay remarks: Cyclin-dependent kinase activity assay (continuous ATP coupling assay), CDK2/cyclinE1
Experimental parameters: CDK2/cyclinE1 5 nM, ATP 300 μM, Rb copeptide 100 μM, 15 min preincubation, pH 7.5, 1% DMSO
pIC50: −log10 of the molar value.
Outcome measure: pIC50

What value of pIC50 has been recorded for this entry: CNS(=O)(=O)c1ccc(Nc2ncc(C(F)(F)F)c(-n3cc(C4COC4)cn3)n2)cc1
≥ 8.00

What value of pIC50 has been recorded for this entry: CC(C)(O)Cc1cnn(-c2nc(NC3CCN(S(C)(=O)=O)CC3)ncc2C(F)(F)F)c1
≥ 8.00

What value of pIC50 has been recorded for this entry: CC(C)(O)Cc1cnn(-c2nc(N[C@@H]3CCOC[C@H]3O)ncc2C(F)(F)F)c1 (single isomer, unassigned)
≤ 7.00

What value of pIC50 has been recorded for this entry: CS(=O)(=O)Nc1cccc(Nc2ncc(C(F)(F)F)c(-n3cccn3)n2)c1
7.00 to 8.00

What value of pIC50 has been recorded for this entry: CNS(=O)(=O)c1ccc(Nc2ncc(C(F)(F)F)c(-n3cc(C4CCN(S(C)(=O)=O)CC4)cn3)n2)cc1
7.00 to 8.00

What value of pIC50 has been recorded for this entry: CNS(=O)(=O)c1ccc(Nc2ncc(C(F)(F)F)c(-n3cc(N4CCCC4)cn3)n2)cc1
7.00 to 8.00

What value of pIC50 has been recorded for this entry: O=S(=O)(NCCO)c1ccc(Nc2ncc(C(F)(F)F)c(-n3cccn3)n2)nc1
≤ 7.00

What value of pIC50 has been recorded for this entry: CNS(=O)(=O)c1ccc(Nc2ncc(C(F)(F)F)c(-n3cc(C4CCN(C(C)C)CC4)cn3)n2)cc1
≥ 8.00

What value of pIC50 has been recorded for this entry: O=S(=O)(NC1CC(F)(F)C1)c1ccc(Nc2ncc(C(F)(F)F)c(-n3cccn3)n2)cc1
7.00 to 8.00

What value of pIC50 has been recorded for this entry: FC(F)(F)c1cnc(Nc2ccc(S(F)(F)(F)(F)F)cc2)nc1-n1cccn1
≤ 7.00

What value of pIC50 has been recorded for this entry: [2H]C([2H])([2H])NS(=O)(=O)c1ccc(Nc2ncc(C(F)(F)F)c(-n3cc(CCC(C)(C)O)cn3)n2)cc1
≥ 8.00

What value of pIC50 has been recorded for this entry: O=C(O)CNS(=O)(=O)c1ccc(Nc2ncc(C(F)(F)F)c(-n3cccn3)n2)cc1
≥ 8.00

What value of pIC50 has been recorded for this entry: CNS(=O)(=O)c1ccc(Nc2ncc(C(F)(F)F)c(-n3cc(C(C)(C)C(C)(C)O)cn3)n2)cc1
7.00 to 8.00

What value of pIC50 has been recorded for this entry: CNS(=O)(=O)c1ccc(Nc2ncc(C(F)(F)F)c(-n3cc(C4CN(S(C)(=O)=O)C4)cn3)n2)cc1
7.00 to 8.00

What value of pIC50 has been recorded for this entry: CNS(=O)(=O)c1ccc(Nc2ncc(C(F)(F)F)c(-n3cc([C@H]4CCC[C@@H]4O)cn3)n2)cc1 (single isomer, unassigned)
7.00 to 8.00
